Values were extracted from patent US8653087B2.

Molecular target: B-Raf (V600E)-kinase (Homo sapiens (Human), UniProt P15056, V600E)
Sequence (P15056 whole entry V600E): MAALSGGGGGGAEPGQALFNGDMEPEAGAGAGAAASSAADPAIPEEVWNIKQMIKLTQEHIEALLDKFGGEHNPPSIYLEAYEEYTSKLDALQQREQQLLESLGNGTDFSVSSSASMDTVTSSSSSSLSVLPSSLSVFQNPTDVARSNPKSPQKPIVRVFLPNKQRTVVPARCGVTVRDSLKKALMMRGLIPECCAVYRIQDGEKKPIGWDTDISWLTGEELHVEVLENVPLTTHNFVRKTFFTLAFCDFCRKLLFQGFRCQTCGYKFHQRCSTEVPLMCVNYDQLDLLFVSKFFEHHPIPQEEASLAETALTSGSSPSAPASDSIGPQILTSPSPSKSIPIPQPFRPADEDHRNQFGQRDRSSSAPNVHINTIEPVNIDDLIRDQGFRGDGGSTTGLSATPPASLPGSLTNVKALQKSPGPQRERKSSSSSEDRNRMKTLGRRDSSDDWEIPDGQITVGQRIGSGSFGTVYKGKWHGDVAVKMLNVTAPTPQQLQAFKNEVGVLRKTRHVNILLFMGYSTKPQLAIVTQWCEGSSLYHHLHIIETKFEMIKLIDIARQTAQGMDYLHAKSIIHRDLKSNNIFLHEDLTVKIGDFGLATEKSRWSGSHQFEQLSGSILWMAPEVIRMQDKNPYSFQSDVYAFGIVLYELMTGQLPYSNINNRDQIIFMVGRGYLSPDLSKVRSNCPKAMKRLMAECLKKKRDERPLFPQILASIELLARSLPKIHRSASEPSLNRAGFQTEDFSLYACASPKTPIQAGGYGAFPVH
Test: Kinase test B-RAF (V600E)
Format: biochemical
Conditions: B-RAF (V600E) kinase test, 250 μM ATP
quantity: IC50 (nM)

> print(dat)
                                    compound  units.of.measure  number
 1  Cc1ccc(C(=O)Nc2ccc(Cl)c(C(F)(F)F)c2)cc1Nc1ncnc2c(N)nc(N3CCN(C)CC3)nc12                nM       3
 2  CCN(CC)c1ncc2ncnc(Nc3cc(C(=O)Nc4cc(OCCN(C)C)cc(C(F)(F)F)c4)ccc3C)c2n1                nM       3
 3  CN(C)C1CCN(c2ncc3ncnc(Nc4cc(Cl)cc(C(=O)Nc5cc(C(C)(C)C)nn5C)c4)c3n2)C1 (centres unmarked)                nM       6
 4  Cc1ccc(C(=O)Nc2cccc(C(C)(C)C)c2)cc1Nc1ncnc2cnc(N(C)CCN(C)C)nc12                nM       6
 5  COc1ccc(C(=O)Nc2ccc(OC)c(C(F)(F)F)c2)cc1Nc1ncnc2cnc(NCCN3CCOCC3)nc12                nM       3
 6  COCCN(C)c1ncc2ncnc(Nc3cc(C(=O)Nc4cc(CN5CCCC5)cc(C(F)(F)F)c4)ccc3C)c2n1                nM       2
 7  COc1c(CN2CCCC2)cc(C(F)(F)F)cc1NC(=O)c1ccc(C)c(Nc2ncnc3cnc(N4CC[C@H](F)C4)nc23)c1                nM      15
 8  Cc1ccc(C(=O)Nc2cc(C(C)(C)C)on2)cc1Nc1ncnc2cnc(N3CCC(N4C[C@@H](C)O[C@@H](C)C4)CC3)nc12                nM       6
 9  Cc1ccc(C(=O)Nc2cc(CN3CCCC3)cc(C(F)(F)F)c2)cc1Nc1ncnc2cnc(N3CCCC3)nc12                nM       2
10  COCCN1CCN(c2ncc3ncnc(N(C)c4cc(C(=O)Nc5ccc(OC)c(C(F)(F)F)c5)ccc4C)c3n2)CC1                nM     193
11  Cc1ccc(C(=O)Nc2cc(C(C)(C)C)on2)cc1Nc1ncnc2cnc(NCc3ccccc3)nc12                nM       2
12  COc1ccc(NC(=O)c2ccc(C)c(Nc3ncnc4cnc(N5CCN(CC6CCOC6)CC5)nc34)c2)cc1C(F)(F)F (centres unmarked)                nM       6
13  CN1CCN(c2ncc3ncnc(Nc4cc(Cl)cc(C(=O)Nc5cc(C(C)(C)C)nn5C)c4)c3n2)CC1                nM       8
14  COc1ccc(C(=O)Nc2cc(C(C)(C)C)on2)cc1Nc1ncnc2cnc(N(C)CCN3CCCC3)nc12                nM       4

---

Target: B-Raf (V600E)-kinase (Homo sapiens (Human), UniProt P15056, V600E)
Experiment: Kinase test B-RAF (V600E)
Type: biochemical
Conditions: B-RAF (V600E) kinase test, 250 μM ATP
pIC50: −log10 of the molar value.
Examples of compounds with documented pIC50 follow.
quantity: pIC50

> print(dat)
                                    compound  relation.qualifier  number
 1  Cn1nc(C(C)(C)C)cc1NC(=O)c1cc(Cl)cc(Nc2ncnc3cnc(N4CCOCC4)nc23)c1Cl                   =    5.70
 2  Cc1ccc(NC(=O)c2cc(N3CCN(C)CC3)cc(C(F)(F)F)c2)cc1Nc1ncnc2cnc(N(C)CCN(C)C)nc12                   =    8.05
 3  COc1ccc(NC(=O)c2ccc(C(F)(F)F)c(Nc3ncnc4cnc(N(C)CCN(C)C)nc34)c2)cc1C(F)(F)F                   =    6.01
 4  CN1CCN(c2cc(NC(=O)c3ccc(F)c(Nc4ncnc5cnc(NC6CCOC6)nc45)c3)cc(C(F)(F)F)c2F)CC1 (stereo not shown)                   >    9.00
 5  Cc1ccc(C(=O)Nc2cc(N(C)CCN(C)C)cc(C(F)(F)F)c2)cc1Nc1ncnc2c(N)nc(N3CCCOCC3)nc12                   =    8.52
 6  Cc1ccc(C(=O)Nc2ccc(C(F)(F)F)cc2)cc1Nc1ncnc2c(N)nc(N3CCNCC3)nc12                   =    8.15
 7  COc1ccc(NC(=O)c2ccc(C)c(Nc3ncnc4cnc(N5CCN(CCCN6CCCC6)CC5)nc34)c2)cc1C(F)(F)F                   =    8.70
 8  CC(C)CN1CCN(c2nc(N)c3ncnc(Nc4ccc(F)c(C(=O)Nc5cc(C(C)(C)C)n[nH]5)c4)c3n2)CC1                   =    5.66
 9  Cc1ccc(C(=O)Nc2cc(N3CCN(C)CC3)c(F)c(C(F)(F)F)c2)cc1Nc1ncnc2cnc(N3CC[C@H](F)C3)nc12                   =    8.40
10  Cc1ccc(C(=O)NCc2ccc(C(F)(F)F)cc2)cc1Nc1ncnc2cnc(N3CCCC3)nc12                   =    7.40
11  Cc1ccc(C(=O)Nc2ccc(N(C)CCN(C)C)c(C(F)(F)F)c2)cc1Nc1ncnc2cnc(NCc3ccncc3)nc12                   =    8.52
12  COc1ncc2ncnc(Nc3cc(NC(=O)c4cc(N5CCN(C)CC5)cc(C(F)(F)F)c4)ccc3C)c2n1                   =    8.52
13  Cc1ccc(C(=O)Nc2cc(CN3CCCC3)cc(C(F)(F)F)c2)cc1Nc1ncnc2cnc(N3CCOCC3)nc12                   >    9.00

---

Target: B-Raf (V600E)-kinase (Homo sapiens (Human), UniProt P15056, V600E)
Test: Kinase test B-RAF (V600E)
Format: biochemical
Conditions: B-RAF (V600E) kinase test, 250 μM ATP
pIC50: −log10 of the molar value.
Label scheme for pIC50: lower than 8 is Not met, 8 and above is Met.

> print(dat)
                                    compound                            assayed.system  label.class
 1  Cc1ccc(C(=O)Nc2cccc(C(F)(F)F)c2)cc1Nc1ncnc2c(N)nc(N3CCN(C(C)C)CC3)nc12  B-Raf (V600E)-kinase (Homo sapiens (Human), UniProt P15056, V600E)          Met
 2  Cc1ccc(C(=O)Nc2cc(C(C)(C)C)nn2C)cc1Nc1ncnc2cnc(NC3CCOC3)nc12 (stereo not shown)  B-Raf (V600E)-kinase (Homo sapiens (Human), UniProt P15056, V600E)          Met
 3  Cc1ccc(C(=O)Nc2cccc(C(C)(C)C)c2)cc1Nc1ncnc2cnc(N3CCCCC3)nc12  B-Raf (V600E)-kinase (Homo sapiens (Human), UniProt P15056, V600E)          Met
 4  COc1c(CNC(C)C)cc(C(F)(F)F)cc1NC(=O)c1ccc(C)c(Nc2ncnc3cnc(N4CCOCC4)nc23)c1  B-Raf (V600E)-kinase (Homo sapiens (Human), UniProt P15056, V600E)          Met
 5  COCCN(C)c1ncc2ncnc(Nc3cc(C(=O)Nc4cc(C(F)(F)F)ccn4)ccc3C)c2n1  B-Raf (V600E)-kinase (Homo sapiens (Human), UniProt P15056, V600E)          Met
 6  COc1ccc(C(=O)Nc2ccc(OC)c(C(F)(F)F)c2)cc1Nc1ncnc2cnc(N3CCOCC3)nc12  B-Raf (V600E)-kinase (Homo sapiens (Human), UniProt P15056, V600E)          Met
 7  COc1ccc(C(=O)Nc2cccc(C(F)(F)F)c2)cc1Nc1ncnc2c(N)nc(N3CCCN(C)CC3)nc12  B-Raf (V600E)-kinase (Homo sapiens (Human), UniProt P15056, V600E)      Not met
 8  COc1ccc(NC(=O)c2ccc(F)c(Nc3ncnc4cnc(N5CCCCCC5)nc34)c2)cc1C(F)(F)F  B-Raf (V600E)-kinase (Homo sapiens (Human), UniProt P15056, V600E)          Met
 9  Cc1ccc(C(=O)Nc2cc(OCCN3CCOCC3)cc(C(F)(F)F)c2)cc1Nc1ncnc2cnc(N3CCOCC3)nc12  B-Raf (V600E)-kinase (Homo sapiens (Human), UniProt P15056, V600E)          Met
10  COCCN1CCN(c2ncc3ncnc(Nc4cc(C(=O)Nc5cc(C(F)(F)F)ccc5N5CCOCC5)ccc4C)c3n2)CC1  B-Raf (V600E)-kinase (Homo sapiens (Human), UniProt P15056, V600E)      Not met
11  CN(C)CCN(C)c1ncc2ncnc(Nc3cc(C(=O)Nc4cc(C(C)(C)C)on4)ccc3C(F)(F)F)c2n1  B-Raf (V600E)-kinase (Homo sapiens (Human), UniProt P15056, V600E)      Not met
12  COc1ccc(NC(=O)c2ccc(Cl)c(Nc3ncnc4cnc(NCCN5CCOCC5)nc34)c2)cc1C(F)(F)F  B-Raf (V600E)-kinase (Homo sapiens (Human), UniProt P15056, V600E)          Met
13  Cc1ccc(C(=O)NC2CCCCC2)cc1Nc1ncnc2cnc(N3CC[C@@H](F)C3)nc12  B-Raf (V600E)-kinase (Homo sapiens (Human), UniProt P15056, V600E)      Not met
14  Cc1ccc(C(=O)NC2CC2)cc1Nc1ncnc2cnc(N3CCOCC3)nc12  B-Raf (V600E)-kinase (Homo sapiens (Human), UniProt P15056, V600E)      Not met
15  COCCN1CCN(c2ncc3ncnc(Nc4cc(C(=O)Nc5cc(C(C)(C)C)cc(NS(C)(=O)=O)c5OC)ccc4C)c3n2)CC1  B-Raf (V600E)-kinase (Homo sapiens (Human), UniProt P15056, V600E)      Not met
16  Cc1ccc(C(=O)Nc2cc(C(F)(F)F)ccn2)cc1Nc1ncnc2cnc(N3CC[C@H](F)C3)nc12  B-Raf (V600E)-kinase (Homo sapiens (Human), UniProt P15056, V600E)          Met
17  Cc1ccc(C(=O)Nc2cc(CN3CCCC3)c(Cl)c(C(F)(F)F)c2)cc1Nc1ncnc2cnc(N3CCOCC3)nc12  B-Raf (V600E)-kinase (Homo sapiens (Human), UniProt P15056, V600E)          Met
